# shrunken log2 fold change values compiled below
tested on: Escherichia coli TOP10; test: shrunken log2 fold change of peptide-encoding DNA abundance (4.5 h post-induction vs induction); higher = less antimicrobial activity (less host growth inhibition); settings: time post-induction: 4.5 h; library: site-saturation at positions 5, 18, 19, 20
Just the number, please.

Sample records with shrunken log2 fold change:
RRIRWRPPRLPRPRPRPIDFPRP	-3.4e-05
RRIRCRPPRLPRPRPRPSNVPRP	-0.608
RRIRLRPPRLPRPRPRPKNEPRP	-0.198
RRIRCRPPRLPRPRPRPRTYPRP	-0.447
RRIRTRPPRLPRPRPRPDYDPRP	0.00888
RRIRVRPPRLPRPRPRPKDDPRP	0.0252
RRIRGRPPRLPRPRPRPWCKPRP	-0.184

API: the following record is the query input.
Measured shrunken log2 fold change, RRIRNRPPRLPRPRPRPLMTPRP : 0.0149

----------
test system: Escherichia coli TOP10; assay: shrunken log2 fold change of peptide-encoding DNA abundance (4.5 h post-induction vs induction); higher = less antimicrobial activity (less host growth inhibition); settings: time post-induction: 4.5 h; library: site-saturation at positions 5, 18, 19, 20
Rule: shrunken log2 fold change of -0.008 or more gives YES; anything lower gives NO.

Check out these entries, answers already filled in.
RRIRERPPRLPRPRPRPNPSPRP	NO
RRIRQRPPRLPRPRPRPDINPRP	NO
RRIRIRPPRLPRPRPRPRSSPRP	YES
RRIRNRPPRLPRPRPRPPSCPRP	NO
RRIRTRPPRLPRPRPRPNGIPRP	YES
RRIRCRPPRLPRPRPRPPRQPRP	YES
RRIRWRPPRLPRPRPRPWHRPRP	NO
RRIRCRPPRLPRPRPRPFPIPRP	NO
RRIRGRPPRLPRPRPRPARCPRP	YES
RRIRWRPPRLPRPRPRPWCIPRP	NO

API: above_or_equal(metric=shrunken log2 fold change, cutoff=-0.008) for item RRIRSRPPRLPRPRPRPCCDPRP
NO

API: above_or_equal(metric=shrunken log2 fold change, cutoff=-0.008) for item RRIRSRPPRLPRPRPRPDAKPRP
YES

----------
tested on: Escherichia coli TOP10; assay: shrunken log2 fold change of peptide-encoding DNA abundance (4.5 h post-induction vs induction); higher = less antimicrobial activity (less host growth inhibition); settings: time post-induction: 4.5 h; library: site-saturation at positions 5, 18, 19, 20;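 note: peptides expressed intracellularly from a pBAD plasmid library in pooled LB shake-flask culture, induced with 0.3% L-arabinose, DNA abundance read by NGS, three biological replicates, DESeq2 with apeglm shrinkage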
# shrunken log2 fold change values compiled below
Just the number, please.

Sample records with shrunken log2 fold change:
RRIRVRPPRLPRPRPRPIMGPRP	0.0179
RRIRERPPRLPRPRPRPRWDPRP	0.143
RRIRVRPPRLPRPRPRPCWCPRP	0.0389
RRIRFRPPRLPRPRPRPWLQPRP	-0.163
RRIRWRPPRLPRPRPRPSVVPRP	-0.00267

Measured shrunken log2 fold change, RRIRDRPPRLPRPRPRPARMPRP : 0.584

Measured shrunken log2 fold change, RRIRARPPRLPRPRPRPDQVPRP : 0.359

Measured shrunken log2 fold change, RRIRKRPPRLPRPRPRPCTWPRP : -0.15

Measured shrunken log2 fold change, RRIRKRPPRLPRPRPRPAPHPRP : 0.79

Measured shrunken log2 fold change, RRIRLRPPRLPRPRPRPMDYPRP : -0.202

Measured shrunken log2 fold change, RRIRTRPPRLPRPRPRPCQDPRP : -0.13

Measured shrunken log2 fold change, RRIRFRPPRLPRPRPRPHLVPRP : -0.33

Measured shrunken log2 fold change, RRIRFRPPRLPRPRPRPGAWPRP : -0.15
